Cited source: patent US12139492B2

molecular target: BTK (Homo sapiens, UniProt Q06187); assay: BTK degradation, DC50 and Dmax of Table 1 (cell line not given); assay type: cell-based; design: endogenous in cells
Sequence (Q06187 whole entry): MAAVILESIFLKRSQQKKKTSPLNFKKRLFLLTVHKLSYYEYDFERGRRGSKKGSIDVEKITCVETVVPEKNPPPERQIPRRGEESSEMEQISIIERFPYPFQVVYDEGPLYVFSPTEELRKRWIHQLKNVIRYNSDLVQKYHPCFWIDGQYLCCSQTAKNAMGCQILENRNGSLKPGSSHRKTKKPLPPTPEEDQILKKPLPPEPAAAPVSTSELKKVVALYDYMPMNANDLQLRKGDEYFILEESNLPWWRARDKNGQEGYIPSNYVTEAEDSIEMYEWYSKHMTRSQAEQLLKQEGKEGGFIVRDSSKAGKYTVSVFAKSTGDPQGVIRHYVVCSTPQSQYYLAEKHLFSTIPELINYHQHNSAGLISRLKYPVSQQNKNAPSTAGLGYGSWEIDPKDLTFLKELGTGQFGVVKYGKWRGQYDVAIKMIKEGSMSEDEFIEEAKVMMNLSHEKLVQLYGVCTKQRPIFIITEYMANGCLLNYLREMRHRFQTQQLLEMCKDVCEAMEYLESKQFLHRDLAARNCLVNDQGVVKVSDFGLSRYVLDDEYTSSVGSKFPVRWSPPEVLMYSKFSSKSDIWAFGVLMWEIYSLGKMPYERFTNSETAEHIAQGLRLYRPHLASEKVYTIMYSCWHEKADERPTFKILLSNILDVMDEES
attribute.measured: Dmax

| compound | attribute.measured | endpoint.result |
| --- | --- | --- |
| Nc1ncnc2c1c(-c1ccc(Oc3ccccc3)cc1)nn2[C@@H]1CCCN(C(=O)N2CCN(CCCN3CCN(c4ccc5c(c4)C(=O)N(C4CCC(=O)NC4=O)C5=O)CC3)CC2)C1 (stereo partly shown) | Dmax | > 75% |
| Nc1ncnc2c1c(-c1ccc(Oc3ccccc3)cc1)nn2[C@@H]1CCCN(C2CCN(C(=O)N3CCC(CCC4CCN(c5ccc6c(c5)C(=O)N(C5CCC(=O)NC5=O)C6=O)CC4)CC3)CC2)C1 (stereo partly shown) | Dmax | > 75% |

If you can, please state the reported Dmax value of Nc1ncnc2c1c(-c1ccc(Oc3ccccc3)cc1)nn2C1CCN(CCOCCOCCN2CCC(c3ccc4c(c3)CN(C3CCC(=O)NC3=O)C4=O)CC2)CC1 (stereo not shown) .
> 90%

If you can, please state the reported Dmax value of Nc1ncnc2c1c(-c1ccc(Oc3ccccc3)cc1)nn2[C@@H]1CCCN(C(=O)N2CCC(CCN3CCN(c4ccc5c(c4)C(=O)N(C4CCC(=O)NC4=O)C5=O)CC3)CC2)C1 (stereo partly shown) .
> 90%

If you can, please state the reported Dmax value of Nc1ncnc2c1c(-c1ccc(Oc3ccccc3)cc1)nn2[C@@H]1CCCN(C(=O)N2CCC(CN3CCC(c4ccc5c(c4)C(=O)N(C4CCC(=O)NC4=O)C5=O)CC3)CC2)C1 (stereo partly shown) .
> 90%

If you can, please state the reported Dmax value of Nc1ncnc2c1c(-c1ccc(Oc3ccccc3)cc1)nn2[C@@H]1CCCN(CC2CCN(CCN3CCC(c4ccc5c(c4)CN(C4CCC(=O)NC4=O)C5=O)CC3)CC2)C1 (stereo partly shown) .
> 75%

If you can, please state the reported Dmax value of Nc1ncnc2c1c(-c1ccc(Oc3ccccc3)cc1)nn2[C@@H]1CCCN(C(=O)N2CCC(CCCN3CCN(c4ccc5c(c4)CN(C4CCC(=O)NC4=O)C5=O)CC3)CC2)C1 (stereo partly shown) .
> 75%

If you can, please state the reported Dmax value of Nc1ncnc2c1c(-c1ccc(Oc3ccccc3)cc1)nn2[C@@H]1CCCN(C2CCN(C(=O)N3CCC(N4CCC(c5ccc6c(c5)CN(C5CCC(=O)NC5=O)C6=O)CC4)CC3)CC2)C1 (stereo partly shown) .
> 90%

If you can, please state the reported Dmax value of Nc1ncnc2c1c(-c1ccc(Oc3ccccc3)cc1)nn2C1CCN(C(=O)N2CCN(CCCN3CCC(c4ccc5c(c4)CN(C4CCC(=O)NC4=O)C5=O)CC3)CC2)CC1 (stereo not shown) .
> 90%

If you can, please state the reported Dmax value of Nc1ncnc2c1c(-c1ccc(Oc3ccccc3)cc1)nn2C1CCN(CC2CCN(C(=O)N3CCC(C4CCN(c5ccc6c(c5)C(=O)N(C5CCC(=O)NC5=O)C6=O)CC4)CC3)CC2)CC1 (stereo not shown) .
> 90%
